target: human TYK2 (JH2domain-pseudokinase) (Homo sapiens (Human), UniProt P29597); assay: TYK2 JH2 Domain Binding Assay (KINOMEscan)
Sequence (P29597 556-888): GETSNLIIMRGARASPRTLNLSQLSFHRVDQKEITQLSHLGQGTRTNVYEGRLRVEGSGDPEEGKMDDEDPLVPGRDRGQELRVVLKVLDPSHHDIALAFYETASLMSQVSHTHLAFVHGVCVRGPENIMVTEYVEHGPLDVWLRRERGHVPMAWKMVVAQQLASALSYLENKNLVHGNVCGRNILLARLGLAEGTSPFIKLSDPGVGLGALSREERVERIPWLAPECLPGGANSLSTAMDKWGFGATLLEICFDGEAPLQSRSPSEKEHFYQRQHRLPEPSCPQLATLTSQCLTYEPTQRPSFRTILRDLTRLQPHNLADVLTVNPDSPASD
Documented Kd across a set of compounds

• CNc1cc(Nc2cccn([C@H]3CCCOC3)c2=O)nc2c(C(=O)N[C@H]3CC[C@H](O)C3)cnn12 (stereo in doubt) [I-701] = 200 to 1000 pM
• CNc1cc(Nc2cccn([C@H]3CCN(CCF)C3)c2=O)nc2c(C(=O)NC3CC3)cnn12 [I-932] = 200 to 1000 pM
• CNc1cc(Nc2cccn([C@@H]3C[C@H]3F)c2=O)nc2c(C(=O)N[C@@H]3CC[C@@H]3O)cnn12 [I-1403] = 200 to 1000 pM
• CNc1cc(Nc2cccn(-c3ccccc3F)c2=O)nc2c(C(=O)NC[C@H](C)CO)cnn12 [I-1077] = 200 to 1000 pM

Problem: State its Kd on human TYK2 (JH2domain-pseudokinase) (Homo sapiens (Human), UniProt P29597): CNc1cc(Nc2cccn(-c3nc(C)c(C)s3)c2=O)nc2c(C(=O)NC3CCC3)cnn12 [I-293]
Result: 200 to 1000 pM

Problem: State its Kd on human TYK2 (JH2domain-pseudokinase) (Homo sapiens (Human), UniProt P29597): CNc1cc(Nc2cccn([C@@H]3C[C@H]3F)c2=O)nc2c(C(=O)N[C@H]3CC[C@@H]3O)cnn12 [I-1401]
Result: < 200 pM

---

Documented inhibition at 10 µM across a set of compounds
biological target: Tyk2 kinase domain (DH1) (Homo sapiens (Human)); experiment: Tyk2 Radioactive Kinase Assay; type: biochemical; details: compound at 10 μM; ATP 10 μM; read-out: Tyk2 JH1% Inhibition @ 10 μM
Sequence (P29597 897-1176): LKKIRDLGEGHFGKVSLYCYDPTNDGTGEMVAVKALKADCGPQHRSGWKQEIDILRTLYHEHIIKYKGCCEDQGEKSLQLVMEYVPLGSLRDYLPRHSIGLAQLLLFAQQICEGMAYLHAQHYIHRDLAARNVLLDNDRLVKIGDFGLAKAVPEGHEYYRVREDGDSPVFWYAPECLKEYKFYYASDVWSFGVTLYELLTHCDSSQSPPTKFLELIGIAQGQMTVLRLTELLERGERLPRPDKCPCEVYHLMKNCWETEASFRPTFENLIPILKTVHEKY

Please review the following examples before continuing.
• CNc1cc(Nc2cccn(-c3nc(C)co3)c2=O)nc2c(C(=O)NC3CCC3)cnn12 [I-386] = < 50%
• CNc1cc(Nc2cccc([C@@H]3CCCOC3)n2)nc2c(C(=O)N[C@H]3CC[C@@H]3O)cnn12 [I-603] = 50 to 70%
• CNc1cc(Nc2cccn([C@@H]3CCCOC3)c2=O)nc2c(C(=O)N[C@H]3COC[C@H]3O)cnn12 [I-754] = < 50%

Continue with the next compound.
Problem: Entry CNc1cc(Nc2cccnc2O[C@H]2CC[C@H](O)CC2)nc2c(C(=O)N[C@H]3C[C@H]3F)cnn12 [I-239] : reported inhibition at 10 µM = ?
Result: < 50%

---

biological target: human TYK2 (JH2domain-pseudokinase) (Homo sapiens (Human), UniProt P29597); test: TYK2 JH2 Domain Binding Assay (KINOMEscan)
Reported Endpoint: Kd

Please review the following examples before continuing.
* CNc1cc(Nc2cc(F)cn(-c3cnn(C)c3)c2=O)nc2c(C(=O)NC3CC3)cnn12 | < 0.2 nM
* CNc1cc(Nc2cccnc2OC2CC2)nc2c(C(=O)NCCC(C)(C)O)cnn12 | 1 to 10 nM
* CNc1cc(Nc2cccn(-c3cccc(F)c3)c2=O)nc2c(C(=O)N[C@@H]3CC[C@@H]3O)cnn12 | 0.2 to 1 nM
* CNc1cc(Nc2cccn(-c3cc(C)on3)c2=O)nc2c(C(=O)NC3COC3)cnn12 | 1 to 10 nM
* CNc1cc(Nc2cccn(C3CCN(C)CC3)c2=O)nc2c(C(=O)N[C@H]3C[C@H]3F)cnn12 | < 0.2 nM
* CNc1cc(Nc2cccn([C@H]3CCCOC3)c2=O)nc2c(C(=O)N[C@H]3CC[C@H](O)C3)cnn12 [I-728] | < 0.2 nM

Problem: Entry `CNc1cc(Nc2cccnc2OC2CC2)nc2c(C(=O)NCCC3(O)CC3)cnn12` : reported Kd = ?
Result: 1 to 10 nM

Problem: Entry `CNc1cc(Nc2cccn([C@@H]3CCC[C@H](OC)C3)c2=O)nc2c(C(=O)N[C@@H]3C[C@@H]3F)cnn12` : reported Kd = ?
Result: < 0.2 nM

Problem: Entry `CNc1cc(Nc2cccn(-c3nn(C)cc3F)c2=O)nc2c(C(=O)NC3CC3)cnn12` : reported Kd = ?
Result: < 0.2 nM

Problem: Entry `CNc1cc(Nc2cccnc2OC)nc2c(C(N)=O)cnn12` : reported Kd = ?
Result: < 0.2 nM

Problem: Entry CNc1cc(Nc2cccn(-c3ccccc3F)c2=O)nc2c(C(=O)NCC(C)CO)cnn12 (centres unmarked) : reported Kd = ?
Result: < 0.2 nM

Problem: Entry CNc1cc(Nc2cccn(-c3ncc(C)s3)c2=O)nc2c(C(=O)N[C@@H]3CC[C@@H]3O)cnn12 [I-677] : reported Kd = ?
Result: < 0.2 nM

Problem: Entry CNc1cc(Nc2cccn(C3CCOCC3)c2=O)nc2c(C(=O)N[C@H]3CC[C@H]3O)cnn12 [I-557] : reported Kd = ?
Result: 0.2 to 1 nM

Problem: Entry `CNc1cc(Nc2cc3cccnc3n2C2CC2)nc2c(C(=O)N[C@H]3CC[C@@H]3OC)cnn12` : reported Kd = ?
Result: < 0.2 nM

Problem: Entry `CNc1cc(Nc2cccn([C@H]3CC[C@H](OC)CC3)c2=O)nc2c(C(=O)NCC3(CO)CC3)cnn12` : reported Kd = ?
Result: < 0.2 nM

Problem: Entry `CNc1cc(Nc2cccn([C@H]3CCCOC3)c2=O)nc2c(C(=O)N[C@@H]3C[C@H]3OC)cnn12` : reported Kd = ?
Result: < 0.2 nM

Problem: Entry `CNc1cc(Nc2cccn(-c3ccc(C)nn3)c2=O)nc2c(C(=O)NC3CCC3)cnn12` : reported Kd = ?
Result: < 0.2 nM

Problem: Entry CNc1cc(Nc2cccn([C@H]3C[C@@H]3F)c2=O)nc2c(C(=O)NCC3(CO)CC3)cnn12 (stereo in doubt) : reported Kd = ?
Result: < 0.2 nM

Problem: Entry CNc1cc(Nc2cccn([C@H]3CC[C@](C)(OC)CC3)c2=O)nc2c(C(=O)N[C@@H]3CC[C@H]3OC)cnn12 [I-1106] : reported Kd = ?
Result: 1 to 10 nM

Problem: Entry `CNc1cc(Nc2cccn([C@@H]3CCC[C@@H]3O)c2=O)nc2c(C(=O)NC3CC3)cnn12` : reported Kd = ?
Result: 1 to 10 nM

Problem: Entry `CNc1cc(Nc2cc(C)cnc2OCCOC)nc2c(C(=O)NC3CCC3)cnn12` : reported Kd = ?
Result: 0.2 to 1 nM

Problem: Entry CNc1cc(Nc2cccn(C3CCOCC3)c2=O)nc2c(C(=O)N[C@H]3CCC[C@]3(C)O)cnn12 (stereo in doubt) : reported Kd = ?
Result: 0.2 to 1 nM

Problem: Entry CNc1cc(Nc2cccn([C@@H]3CCC[C@@H]3O)c2=O)nc2c(C(=O)N[C@H]3CC[C@@H]3OC)cnn12 [I-1394] : reported Kd = ?
Result: < 0.2 nM

Problem: Entry `CNc1cc(Nc2cccn([C@H]3CC[C@H](OC)CC3)c2=O)nc2c(C(=O)NC3CC3)cnn12` : reported Kd = ?
Result: < 0.2 nM

---

target: JAK2/JAK2 homdimeric complex (Homo sapiens (Human), UniProt O60674); test: GM-CSF Induced pSTAT5 in Human PBMC; details: GM-CSF 5 ng/mL for 20 minutes, pSTAT5 by MSD, read-out: PBMC_GMCSF_pSTAT5 IC50
Sequence (O60674 whole entry): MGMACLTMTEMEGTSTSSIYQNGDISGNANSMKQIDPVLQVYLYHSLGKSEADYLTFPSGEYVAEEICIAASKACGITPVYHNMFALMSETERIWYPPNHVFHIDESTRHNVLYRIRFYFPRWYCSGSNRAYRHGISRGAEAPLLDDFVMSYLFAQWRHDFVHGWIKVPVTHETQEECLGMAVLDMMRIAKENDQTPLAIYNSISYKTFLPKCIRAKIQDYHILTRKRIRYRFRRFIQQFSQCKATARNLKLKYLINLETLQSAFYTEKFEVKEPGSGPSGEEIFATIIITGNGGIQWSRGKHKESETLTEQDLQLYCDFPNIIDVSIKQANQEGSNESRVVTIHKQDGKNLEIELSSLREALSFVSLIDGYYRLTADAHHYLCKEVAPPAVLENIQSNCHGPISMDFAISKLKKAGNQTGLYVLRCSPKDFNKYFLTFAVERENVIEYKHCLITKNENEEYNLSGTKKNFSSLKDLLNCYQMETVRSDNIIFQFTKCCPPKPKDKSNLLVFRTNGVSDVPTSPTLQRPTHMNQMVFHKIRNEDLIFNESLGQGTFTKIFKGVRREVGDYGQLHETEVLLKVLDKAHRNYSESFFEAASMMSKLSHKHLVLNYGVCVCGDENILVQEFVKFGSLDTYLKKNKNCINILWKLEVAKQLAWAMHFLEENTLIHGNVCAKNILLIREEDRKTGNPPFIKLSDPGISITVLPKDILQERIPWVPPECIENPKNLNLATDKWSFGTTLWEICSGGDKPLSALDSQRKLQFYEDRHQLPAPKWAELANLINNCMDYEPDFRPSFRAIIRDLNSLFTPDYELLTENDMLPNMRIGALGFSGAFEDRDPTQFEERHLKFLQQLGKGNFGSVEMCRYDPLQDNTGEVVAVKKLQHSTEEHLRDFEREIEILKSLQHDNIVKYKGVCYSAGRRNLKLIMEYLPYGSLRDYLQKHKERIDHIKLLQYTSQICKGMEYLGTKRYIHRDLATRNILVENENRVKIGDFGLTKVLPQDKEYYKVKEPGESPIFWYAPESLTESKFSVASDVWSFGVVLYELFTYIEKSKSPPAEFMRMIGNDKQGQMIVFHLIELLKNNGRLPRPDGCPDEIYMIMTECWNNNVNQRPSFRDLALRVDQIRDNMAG
Sequence (P32927 17-897 partner): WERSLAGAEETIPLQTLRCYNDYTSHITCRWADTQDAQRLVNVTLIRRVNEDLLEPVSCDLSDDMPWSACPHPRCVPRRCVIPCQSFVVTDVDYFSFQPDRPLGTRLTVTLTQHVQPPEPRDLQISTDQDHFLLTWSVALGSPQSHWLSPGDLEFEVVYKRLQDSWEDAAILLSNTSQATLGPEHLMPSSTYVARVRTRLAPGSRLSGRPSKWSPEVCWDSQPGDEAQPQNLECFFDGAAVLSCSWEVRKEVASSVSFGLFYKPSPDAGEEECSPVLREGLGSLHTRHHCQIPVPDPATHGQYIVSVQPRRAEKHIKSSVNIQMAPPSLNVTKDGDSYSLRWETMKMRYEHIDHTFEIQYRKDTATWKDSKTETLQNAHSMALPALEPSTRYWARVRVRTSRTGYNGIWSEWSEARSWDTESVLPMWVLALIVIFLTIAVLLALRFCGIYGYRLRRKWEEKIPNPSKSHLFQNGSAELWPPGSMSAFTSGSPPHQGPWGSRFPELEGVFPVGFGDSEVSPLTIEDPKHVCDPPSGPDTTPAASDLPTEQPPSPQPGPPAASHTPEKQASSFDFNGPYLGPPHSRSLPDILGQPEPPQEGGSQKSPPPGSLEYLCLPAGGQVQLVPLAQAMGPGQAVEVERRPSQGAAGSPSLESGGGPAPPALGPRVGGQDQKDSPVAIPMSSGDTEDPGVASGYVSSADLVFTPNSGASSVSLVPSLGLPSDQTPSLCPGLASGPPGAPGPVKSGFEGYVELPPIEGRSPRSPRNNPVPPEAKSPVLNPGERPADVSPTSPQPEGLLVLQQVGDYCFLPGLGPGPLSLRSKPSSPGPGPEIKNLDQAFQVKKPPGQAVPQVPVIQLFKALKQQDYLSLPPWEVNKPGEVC
Documented IC50 across a set of compounds

Please review the following examples before continuing.
- [2H]C([2H])([2H])Oc1ncccc1Nc1cc(NC)n2ncc(C(=O)N[C@@H]3CC[C@@H]3O)c2n1 (stereo in doubt): > 50 µM
- CNc1cc(Nc2cccn(-c3cn(C)nc3F)c2=O)nc2c(C(=O)NC3CC3)cnn12: > 12.5 µM
- [2H]C([2H])([2H])Oc1ncccc1Nc1cc(NC)n2ncc(C(=O)NCC(C)(C)CO)c2n1: > 50 µM

Continue with the next compound.
Problem: Entry CNc1cc(Nc2cccnc2OC)nc2c(C(=O)N[C@@H]3CC[C@H]3O)cnn12 (stereo in doubt) [I-363] : reported IC50 = ?
Result: > 50 µM

---

Documented Kd across a set of molecules
target: human TYK2 (JH2domain-pseudokinase) (Homo sapiens (Human), UniProt P29597); experiment: TYK2 JH2 Domain Binding Assay (KINOMEscan)

Please review the following examples before continuing.
* CNc1cc(Nc2cccn([C@H]3CCCOC3)c2=O)nc2c(C(=O)NC3CCC3)cnn12 | < 0.2 nM
* CNc1cc(Nc2cccn([C@@H]3CCCOC3)c2=O)nc2c(C(=O)NC3CCC3)cnn12 | < 0.2 nM
* CNc1cc(Nc2cccn(-c3nc(C)co3)c2=O)nc2c(C(=O)N[C@H]3CC[C@H]3O)cnn12 | < 0.2 nM
* CNc1cc(Nc2ccnn(-c3ccc(F)cc3)c2=O)nc2c(C(N)=O)cnn12 | 0.2 to 1 nM
* CNc1cc(Nc2cccn([C@H]3CCCOC3)c2=O)nc2c(C(=O)N[C@@H]3CC[C@@H]3O)cnn12 [I-696] | < 0.2 nM

Problem: Entry `CNc1cc(Nc2cccc(N3CCOCC3)n2)nc2c(C(=O)NC3CC3)cnn12` : reported Kd = ?
Result: < 0.2 nM

Problem: Entry `CNc1cc(Nc2cc(Cl)cn([C@@H]3CCCOC3)c2=O)nc2c(C(=O)NC3CC3)cnn12` : reported Kd = ?
Result: < 0.2 nM

Problem: Entry `CO[C@H]1C[C@@H](Oc2ncc(Cl)cc2Nc2cc(N)n3ncc(C(N)=O)c3n2)C1` : reported Kd = ?
Result: 1 to 10 nM

Problem: Entry `CNc1cc(Nc2cccn(-c3ncc(OC)cc3F)c2=O)nc2c(C(=O)N[C@H]3C[C@H]3F)cnn12` : reported Kd = ?
Result: < 0.2 nM

Problem: Entry `CNc1cc(Nc2cccn(C3CCN(CC(F)F)CC3)c2=O)nc2c(C(=O)NC3CC3)cnn12` : reported Kd = ?
Result: < 0.2 nM
